tested target: MRGPRX2-MUT (MRGPRX2 N62S mutation) (Homo sapiens, UniProt Q96LB1, N62S)
Construct: expressed in transfected cells
assay procedure: Primary HTS, Ca2+ mobilization (fluorescence ratio, B-score) in HEK293-Gα15 cells stably expressing the MRGPRX2 N62S mutation
Type: cell-based
test conditions: MRGPRX2-MUT in comparison to MRGPRX2-WT cells, 10 μM, Supplementary Table 1
Where a name gives a salt, the structure may show the parent alone.
readout kind: Change of B-scores (%)
Record the value in %, omitting the unit from your answer.

Guide cases for Change of B-scores (%), answers given:
The compound `Nc1ncnc2c1ncn2[C@@H]1O[C@H](CO)[C@@H](O)[C@H]1O` showed Change of B-scores (%) equal to -99.09

The compound `C[C@H]1COc2c(N3CCN(C)CC3)c(F)cc3c(=O)c(C(=O)O)cn1c23` showed Change of B-scores (%) equal to -101.85

Others:
The compound `CCn1cc(C(=O)O)c(=O)c2cc(F)c(N3CCNCC3)cc21` showed Change of B-scores (%) equal to -99.81

The compound CN1[C@@H]2CC[C@H]1C[C@@H](OC(c1ccccc1)c1ccccc1)C2 [Benztropine] showed Change of B-scores (%) equal to -93.68

The compound CN1CCN(c2cc3c(cc2F)c(=O)c(C(=O)O)cn3-c2ccc(F)cc2)CC1 [Difloxacin Hydrochloride] showed Change of B-scores (%) equal to -103.45

The compound COc1ccc([C@@H]2Sc3ccccc3N(CCN(C)C)C(=O)[C@@H]2OC(C)=O)cc1 [Diltiazem Hydrochloride] showed Change of B-scores (%) equal to -104.18

The compound CN(C)CCCN1c2ccccc2Sc2ccccc21 [Promazine Hydrochloride] showed Change of B-scores (%) equal to -65.37

The compound COc1ccc2c3c1O[C@H]1C[C@@H](O)C=C[C@@]31CCN(C)C2 [Galantamine Hydrobromide] showed Change of B-scores (%) equal to -93.34

----------
tested target: MRGPRX2-WT (wild-type MRGPRX2 receptor) (Homo sapiens, UniProt Q96LB1)
Construct: expressed in transfected cells
Sequence (Q96LB1 1-330): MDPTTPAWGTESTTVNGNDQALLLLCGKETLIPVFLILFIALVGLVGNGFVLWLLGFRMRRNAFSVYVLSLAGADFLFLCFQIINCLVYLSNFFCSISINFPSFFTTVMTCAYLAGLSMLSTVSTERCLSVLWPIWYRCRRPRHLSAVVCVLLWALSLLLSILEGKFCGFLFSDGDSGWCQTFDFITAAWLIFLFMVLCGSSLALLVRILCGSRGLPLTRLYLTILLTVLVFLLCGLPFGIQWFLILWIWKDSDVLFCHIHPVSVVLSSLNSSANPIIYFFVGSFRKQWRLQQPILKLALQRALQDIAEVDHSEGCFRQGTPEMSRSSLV
assay procedure: Primary HTS, Ca2+ mobilization (fluorescence ratio, B-score) in HEK293-Gα15 cells stably expressing wild-type MRGPRX2
Type: cell-based
test conditions: 10 μM compound, Supplementary Table 1
Structures can show the parent of a compound that is named as a salt.
readout kind: B-scores (WT)
Give only the figure.

The compound CN1CCC(=C2c3ccccc3C=Cc3ccccc32)CC1 [Cyproheptadine Hydrochloride] showed B-scores (WT) equal to 41.66

Others:
The compound CN1[C@@H]2CC[C@H]1C[C@@H](OC(=O)C(CO)c1ccccc1)C2 (stereo partly shown) [Atropine] showed B-scores (WT) equal to 18.59

The compound CN1[C@@H]2CC[C@H]1C[C@@H](OC(=O)C(CO)c1ccccc1)C2 (stereo partly shown) [Atropine Sulfate] showed B-scores (WT) equal to 41.43

The compound `COc1ccc2cc1Oc1ccc(cc1)C[C@H]1c3c(cc4c(c3Oc3cc5c(cc3OC)CCN(C)[C@@H]5C2)OCO4)CCN1C` showed B-scores (WT) equal to 19.73

The compound CN(C)CCCN1c2ccccc2CCc2ccc(Cl)cc21 [Clomipramine Hydrochloride] showed B-scores (WT) equal to 30.29

The compound CN1CCC(=C2c3ccccc3CC(=O)c3sccc32)CC1 [Ketotifen] showed B-scores (WT) equal to 20.12

The compound CC(Cc1ccc(O)cc1)NCC(O)c1cc(O)cc(O)c1 (stereo not shown) [Fenoterol Hydrobromide] showed B-scores (WT) equal to 20.31

The compound CN1[C@@H]2CC[C@H]1C[C@@H](OC(=O)C(CO)c1ccccc1)C2 (stereo partly shown) [Atropine Sulfate Monohydrate] showed B-scores (WT) equal to 24.16
